# target_under_test: Muscarinic acetylcholine receptor M3 (Cavia porcellus, UniProt Q8VH26)
# Sequence (Q8VH26 whole entry): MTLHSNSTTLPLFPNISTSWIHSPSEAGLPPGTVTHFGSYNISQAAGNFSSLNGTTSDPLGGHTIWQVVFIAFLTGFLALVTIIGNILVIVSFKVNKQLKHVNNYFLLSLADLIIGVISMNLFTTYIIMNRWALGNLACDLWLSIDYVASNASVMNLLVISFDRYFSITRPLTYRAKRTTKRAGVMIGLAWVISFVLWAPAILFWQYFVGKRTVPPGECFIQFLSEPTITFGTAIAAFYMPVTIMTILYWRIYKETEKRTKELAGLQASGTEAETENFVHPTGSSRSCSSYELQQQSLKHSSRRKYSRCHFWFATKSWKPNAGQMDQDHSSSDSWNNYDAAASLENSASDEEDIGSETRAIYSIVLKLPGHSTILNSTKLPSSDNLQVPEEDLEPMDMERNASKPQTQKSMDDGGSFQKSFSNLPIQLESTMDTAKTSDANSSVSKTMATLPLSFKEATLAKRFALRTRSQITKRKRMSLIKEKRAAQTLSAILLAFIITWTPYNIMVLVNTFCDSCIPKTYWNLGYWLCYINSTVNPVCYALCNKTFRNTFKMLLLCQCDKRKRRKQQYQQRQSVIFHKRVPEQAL
# protocol_description: Agonist activity at muscarinic M3 receptor in guinea-pig ileum
property_measured: EC50 (nM)
Write the answer as a number in nM, unit excluded.

{"columns": ["compound", "unit_spec", "endpoint_result"],
 "data": [
  ["C[N+]1(CC#CCOC2=NOCC2)CCCCC1.[I-]", "nM", 269],
  ["Cc1cc(OCC#CC[N+](C)(C)C)no1.[I-]", "nM", 7.24]
]}

Qu. API: value(readout=EC50, system=Muscarinic acetylcholine receptor M3 (Cavia porcellus, UniProt Q8VH26)) for record `Cc1cc(OCC#CCN2CCCC2)no1.O=C(O)/C=C/C(=O)O`
Ans. 15100

Qu. Identify the measured EC50 of `Cc1cc(OCC#CCN(C)C)no1.O=C(O)/C=C/C(=O)O` for Muscarinic acetylcholine receptor M3 (Cavia porcellus, UniProt Q8VH26).
Ans. 794

Qu. Field: EC50 (Muscarinic acetylcholine receptor M3 (Cavia porcellus, UniProt Q8VH26)). Entry: `C(#CCOc1ccon1)CO/N=C1\CN2CCC1CC2.O=C(O)/C=C/C(=O)O`
Ans. 1020

Qu. What reported EC50 corresponds to CC(C[N+](C)(C)C)OC(N)=O (centres undefined) on Muscarinic acetylcholine receptor M3 (Cavia porcellus, UniProt Q8VH26)?
Ans. 427

Qu. Provide the documented EC50 with Muscarinic acetylcholine receptor M3 (Cavia porcellus, UniProt Q8VH26) as the system for `C[N+]12CCC(CC1)/C(=N/OCC#CCOc1ccon1)C2.[I-]`
Ans. 3550

Qu. GET /values?readout=EC50&system=Muscarinic acetylcholine receptor M3 (Cavia porcellus, UniProt Q8VH26)&item= `C(#CCN1CCCCC1)COC1=NOCC1.O=C(O)C(=O)O`
Ans. 1780

Qu. Observed EC50 on Muscarinic acetylcholine receptor M3 (Cavia porcellus, UniProt Q8VH26) for `Cc1cc(OCC#CC[N+]2(C)CCCC2)no1.[I-]` , please.
Ans. 550

* * *

# target_under_test: Muscarinic acetylcholine receptor M4 (Homo sapiens, UniProt P08173)
# Sequence (P08173 whole entry): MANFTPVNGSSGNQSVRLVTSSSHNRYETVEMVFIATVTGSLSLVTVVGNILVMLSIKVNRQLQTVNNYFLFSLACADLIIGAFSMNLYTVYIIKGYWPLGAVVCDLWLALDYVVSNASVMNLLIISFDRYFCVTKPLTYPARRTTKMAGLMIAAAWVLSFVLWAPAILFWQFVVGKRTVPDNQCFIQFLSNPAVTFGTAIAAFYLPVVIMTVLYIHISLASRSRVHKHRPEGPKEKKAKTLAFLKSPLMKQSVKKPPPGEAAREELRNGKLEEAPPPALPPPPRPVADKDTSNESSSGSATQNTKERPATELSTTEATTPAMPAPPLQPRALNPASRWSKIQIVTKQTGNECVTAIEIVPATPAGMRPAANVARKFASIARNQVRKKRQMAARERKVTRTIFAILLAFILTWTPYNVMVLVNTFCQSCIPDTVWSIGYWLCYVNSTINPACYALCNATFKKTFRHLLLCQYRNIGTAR
property_measured: pKi
# log scale: pKi equals minus log10 of the concentration in mol/L

{"columns": ["record_smiles", "target_under_test", "pKi"],
 "data": [
  ["Cc1cc(OCC#CCN(C)C)no1.O=C(O)/C=C/C(=O)O", "Muscarinic acetylcholine receptor M4 (Homo sapiens, UniProt P08173)", 5.96],
  ["C(#CCN1CCCCC1)COC1=NOCC1.O=C(O)C(=O)O", "Muscarinic acetylcholine receptor M4 (Homo sapiens, UniProt P08173)", 5.22],
  ["C[N+]1(CC#CCOc2cc(-c3ccccc3)on2)CCCC1.[I-]", "Muscarinic acetylcholine receptor M4 (Homo sapiens, UniProt P08173)", 5.22]
]}

Please find the next compound below.
Qu. Form field: reported pKi of `Cc1cc(OCC#CC[N+](C)(C)C)no1.[I-]`
Ans. 6.17
